assay: splicing luciferase reporter signal modulators, primary screen, spliceosome inhibition project, cell-based, HEK293, splice +/- reporter (AID 1101); conditions: luminescence, 24 h, higher = more signal, called active from +8 up or from −8 down;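 further: HEK293 cells carrying a splicing-competent luciferase reporter gene; test concentration not given here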
Decide using z-score: a value greater than or equal to -0.6 is Condition met, a smaller one is Condition not met.

# COMPOUND, CATEGORY LABEL
measured = [
    ("O=C(CS)NCCCCCCNC(=O)[C@H]1C[C@H]2C(=O)N[C@@H](Cc3ccccc3)C(=O)N2[C@H]1c1cccc(OCCO)c1", "Condition met"),
    ("CC(=O)n1cc(C(O)C2C=CC3C(=O)N(c4ccccc4)C(=O)C3N2Nc2ccccc2)c2ccccc21 (stereo not drawn)", "Condition not met"),
    ("COCCCNC(=O)[C@@]1(Sc2ccc(C)cc2)CC(=O)N(Cc2cc(C(F)(F)F)cc(C(F)(F)F)c2)[C@@H]1c1ccc(CO)cc1", "Condition met"),
    ("CC(C)CNC(=O)[C@@]1(c2ccc([N+](=O)[O-])cc2)CC(=O)N(C2CCCCC2)[C@@H]1c1ccc(CO)cc1I", "Condition not met"),
    ("CCOC(=O)C[C@H]1[C@H](OC(=O)c2ccc(C(=O)c3ccccc3)cc2)[C@@H](NC(=O)c2ccc3ccccc3c2)c2cc(OCCCO)ccc2N1C(=O)c1ccccc1", "Condition met"),
    ("COC(=O)[C@@]1(Cc2ccc(OC)cc2)[C@H]2c3cc(C(=O)N(C)C)n(Cc4ccccc4)c3C[C@H]2CN1C(=O)c1ccccc1", "Condition not met"),
    ("Cc1ccc(S[C@]2(C(=O)NC3CC3)CC(=O)N(Cc3ccccc3Cl)[C@@H]2c2ccc(CO)cc2I)cc1", "Condition met"),
    ("C=C(C(=O)CC[C@H](OC(=O)c1cccnc1)c1ccc(CO)o1)C(C)C", "Condition met"),
    ("C=CCOC(=O)[C@@H]1[C@H]2C(=O)O[C@H](c3ccccc3)[C@H](c3ccccc3)N2[C@H](c2ccc(OCCOC(=O)[C@H]3C[C@H]4C(=O)N[C@@H](CC(C)C)C(=O)N4[C@H]3c3ccc(O)cc3)cc2)[C@@]12C(=O)Nc1ccc(I)cc12", "Condition met"),
    ("COC(=O)C[C@H]1O[C@]2(C(=O)N(C)c3ccccc32)[C@@H](C)[C@@H]1[Si](C)(C)c1ccc(C)cc1", "Condition met"),
    ("COc1cc(CO)cc(I)c1O[C@H]1C=C(C(=O)NCCO)C[C@@H](N(CC2CCCCC2)C(=O)c2ccc(C(F)(F)F)cc2)[C@@H]1O", "Condition met"),
    ("COc1ccc(CCNC(=O)[C@@]2(Sc3ccc(C)cc3)CC(=O)N(Cc3cc(C(F)(F)F)cc(C(F)(F)F)c3)[C@@H]2c2ccc(CO)cc2I)cc1", "Condition not met"),
    ("O=C1O[C@@H](c2ccccc2)[C@@H](c2ccccc2)N2[C@@H](c3ccc(O)cc3)[C@]3(C(=O)Nc4ccc(C#CC5=CCCCC5)cc43)[C@@H](C(=O)N3CCN(c4ncccn4)CC3)[C@H]12", "Condition met"),
    ("COCCOC(=O)N1C(=O)[C@@]2(c3ccccc31)[C@H](c1ccc(OCCO)cc1)N1[C@H](c3ccccc3)[C@H](c3ccccc3)OC(=O)[C@H]1[C@@H]2C(=O)Nc1nc2ccccc2s1", "Condition met"),
    ("C[C@]12C(=O)N(CCCCCCO)[C@@H]3C(=O)N(c4ccc(Cl)cc4)CC=CC31O[C@@H]1/C=C\\CCCOC(=O)C12 (stereo partly drawn)", "Condition not met"),
    ("CC=CC(O)C1C=CC2C(=O)N(C)C(=O)C2N1N1CCCCC1 (stereo not drawn)", "Condition met"),
    ("C=CC[C@@]1(C(=O)O)N=C(c2ccc(OCCCO)cc2)O[C@@H]1c1ccccc1", "Condition not met"),
    ("O=C1O[C@@H](c2ccccc2)[C@@H](c2ccccc2)N2[C@@H](c3ccc(O)cc3)[C@]3(C(=O)Nc4ccc(C#CCCO)cc43)[C@@H](C(=O)Nc3nc4ccccc4s3)[C@H]12", "Condition met"),
    ("C=CCN1C(=O)[C@]2(CC=C)N=C(c3ccc(OCCCO)cc3)O[C@@H]2c2ccccc21", "Condition met"),
    ("COCCCNC(=O)[C@]1(Cc2ccccc2CN=[N+]=[N-])N=C(c2ccc(OCCCO)cc2)O[C@@H]1c1ccccc1", "Condition not met"),
    ("[N-]=[N+]=Nc1ccccc1C[C@]1(C(=O)NCc2ccccc2)N=C(c2ccc(OCCCO)cc2)O[C@H]1c1ccccc1", "Condition met"),
    ("O=C1O[C@@H](c2ccccc2)[C@@H](c2ccccc2)N2[C@@H](c3ccccc3OCCO)[C@]3(C(=O)Nc4ccc(C#CCCO)cc43)[C@@H](C(=O)Nc3nc4ccccc4s3)[C@H]12", "Condition met"),
    ("CCCC[C@@H]1C[C@H]1[C@@H](NC(=O)c1ccccc1)c1ccc(Cl)cc1", "Condition not met"),
    ("CN(C)CCCCNC(=O)[C@H]1C[C@H]2C(=O)N[C@@H](CCCCN(C)C)C(=O)N2[C@H]1c1cccc(OCCO)c1", "Condition met"),
    ("O=C1O[C@@H](c2ccccc2)[C@@H](c2ccccc2)N2[C@@H](c3ccccc3OCCO)[C@]3(C(=O)Nc4ccccc43)[C@@H](C(=O)NC[C@H](O)c3ccccc3)[C@H]12", "Condition not met"),
    ("COc1cc(CO)cc(I)c1O[C@H]1C=C(C(=O)NCCO)C[C@@H](NCc2ccccc2F)[C@@H]1O", "Condition not met"),
]
